# Assay target: T1, cynomolgus CX3CR1 (cynomolgus monkey (Macaca fascicularis), UniProt P49238 1-355 (human entry))
# T1 construct: Overexpressed on CHO K1 cells; also called cyno CX3CR1; cyCX3CR1
# T1 chain: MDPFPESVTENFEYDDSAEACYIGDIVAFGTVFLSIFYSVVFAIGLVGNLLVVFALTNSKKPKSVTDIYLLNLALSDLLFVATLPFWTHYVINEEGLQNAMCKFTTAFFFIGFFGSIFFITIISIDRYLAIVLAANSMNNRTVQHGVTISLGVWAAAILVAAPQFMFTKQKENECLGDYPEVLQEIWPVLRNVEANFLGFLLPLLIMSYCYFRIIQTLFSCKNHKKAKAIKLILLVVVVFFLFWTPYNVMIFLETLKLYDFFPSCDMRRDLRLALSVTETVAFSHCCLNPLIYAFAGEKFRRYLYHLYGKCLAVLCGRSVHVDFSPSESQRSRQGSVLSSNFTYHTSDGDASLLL
# Method: flow cytometry on CHO K1 cyCX3CR1 cells, 30 uM HSA
Overview of reported top across a group of binders:
Could you keep your reply to the number by itself?

stdin: I have this binder here, A041600034 (VHH, Trivalent ISVD construct; also called 54A12_SO (E1D)-9GS-ALB23002-9GS-66B02_SO-A) DVQLVESGGGSVQPGGSLRLSCAASGSIFSSTAMAWYRQAPGKQRDLVAVISTVGITKYADSVKGRFTISRDNAKNTVYLQMNSLRPEDTALYYCTSDARRGWDTRYWGQGTLVTVSSGGGGSGGGSEVQLVESGGGVVQPGGSLRLSCAASGFTFRSFGMSWVRQAPGKGPEWVSSISGSGSDTLYADSVKGRFTISRDNSKNTLYLQMNSLRPEDTALYYCTIGGSLSRSSQGTLVTVSSGGGGSGGGSEVQLVESGGGSVQPGGSLRLSCAASGSIFSSTAMAWYRQAPGKRRDLVAAINTVGVTKYADSVKGRFTISRDNAKNTVYLQMNSLRPEDTALYYCTSDPRRGWDTRYWGQGTLVTVSSA , and I need its recorded top.
stdout: 273000

stdin: I have this binder here, A041600011 (VHH, Trivalent ISVD construct (two anti-CX3CR1 ISVDs, one anti-albumin ISVD), C-terminal alanine included in the entry; also called 66B02_SO (E1D)-9GS-66B02_SO-9GS-ALB23002-A) DVQLVESGGGSVQPGGSLRLSCAASGSIFSSTAMAWYRQAPGKRRDLVAAINTVGVTKYADSVKGRFTISRDNAKNTVYLQMNSLRPEDTALYYCTSDPRRGWDTRYWGQGTLVTVSSGGGGSGGGSEVQLVESGGGSVQPGGSLRLSCAASGSIFSSTAMAWYRQAPGKRRDLVAAINTVGVTKYADSVKGRFTISRDNAKNTVYLQMNSLRPEDTALYYCTSDPRRGWDTRYWGQGTLVTVSSGGGGSGGGSEVQLVESGGGVVQPGGSLRLSCAASGFTFRSFGMSWVRQAPGKGPEWVSSISGSGSDTLYADSVKGRFTISRDNSKNTLYLQMNSLRPEDTALYYCTIGGSLSRSSQGTLVTVSSA , and I need its recorded top.
stdout: 331000

stdin: I have this binder here, A041600035 (VHH, Trivalent ISVD construct (two anti-CX3CR1 ISVDs, one anti-albumin ISVD), C-terminal alanine included in the entry; also called 54A12_SO (E1D)-9GS-54A12_SO-9GS-ALB23002-A) DVQLVESGGGSVQPGGSLRLSCAASGSIFSSTAMAWYRQAPGKQRDLVAVISTVGITKYADSVKGRFTISRDNAKNTVYLQMNSLRPEDTALYYCTSDARRGWDTRYWGQGTLVTVSSGGGGSGGGSEVQLVESGGGSVQPGGSLRLSCAASGSIFSSTAMAWYRQAPGKQRDLVAVISTVGITKYADSVKGRFTISRDNAKNTVYLQMNSLRPEDTALYYCTSDARRGWDTRYWGQGTLVTVSSGGGGSGGGSEVQLVESGGGVVQPGGSLRLSCAASGFTFRSFGMSWVRQAPGKGPEWVSSISGSGSDTLYADSVKGRFTISRDNSKNTLYLQMNSLRPEDTALYYCTIGGSLSRSSQGTLVTVSSA , and I need its recorded top.
stdout: 411000

Please look at the following binder next.
stdin: I have this binder here, A041600085 (VHH, also called 307-9GS-ALB23002-9GS-307 (D1E)-A) DVQLVESGGGLVQPGGSLRLSCAASGSIFSSTAMAWYRQAPGKRRDLVAAISTVGVTKYADSVKGRFTISRDNSKNTVYLQMNSLRPEDTAVYYCTSDPRRGWDTRYWGQGTLVTVSSGGGGSGGGSEVQLVESGGGVVQPGGSLRLSCAASGFTFRSFGMSWVRQAPGKGPEWVSSISGSGSDTLYADSVKGRFTISRDNSKNTLYLQMNSLRPEDTALYYCTIGGSLSRSSQGTLVTVSSGGGGSGGGSEVQLVESGGGLVQPGGSLRLSCAASGSIFSSTAMAWYRQAPGKRRDLVAAISTVGVTKYADSVKGRFTISRDNSKNTVYLQMNSLRPEDTAVYYCTSDPRRGWDTRYWGQGTLVTVSSA , and I need its recorded top.
stdout: 186000
